pKd values for the binders below.
System Name: T1, IFN-αWA (human, UniProt P05015 24-189)
T1 construct: also called IFN-α16; alpha WA
Assay Procedure: ProteOn, one antigen concentration
Would you please state pKd, meaning minus log10 of the concentration in mol/L, as a bare number?

Sample answers from the record:
Ask: Need pKd of IFWM3331 (antibody, V domains shown, VH IFWH591, VL IFWL1073; converted mAb; also called IFWB3066) VH: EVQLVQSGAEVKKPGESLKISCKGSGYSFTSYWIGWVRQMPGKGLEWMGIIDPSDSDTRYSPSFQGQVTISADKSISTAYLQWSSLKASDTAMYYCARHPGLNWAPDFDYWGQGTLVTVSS VL: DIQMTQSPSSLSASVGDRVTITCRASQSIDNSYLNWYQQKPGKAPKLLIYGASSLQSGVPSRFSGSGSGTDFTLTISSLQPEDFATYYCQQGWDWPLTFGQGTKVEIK , thanks.
Result: 10.59

Ask: What value of pKd has been reported for the following binder? IFWM3321 (antibody, V domains shown, VH IFWH591, VL IFWL1048; converted mAb; also called IFWB3056) VH: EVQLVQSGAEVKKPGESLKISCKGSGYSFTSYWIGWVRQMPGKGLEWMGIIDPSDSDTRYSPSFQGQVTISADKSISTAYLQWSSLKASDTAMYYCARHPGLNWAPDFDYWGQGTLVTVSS VL: DIQMTQSPSSLSASVGDRVTITCRASQSIDGALNWYQQKPGKAPKLLIYFASSLQSGVPSRFSGSGSGTDFTLTISSLQPEDFATYYCQQAYDFPLTFGQGTKVEIK
Result: 10.24

Kindly consider the entry below.
Ask: Fill blank: measured pKd of the binder IFWM3347 (antibody, V domains shown, VH IFWH624, VL IFWL1004; converted mAb; also called IFWB3082) VH: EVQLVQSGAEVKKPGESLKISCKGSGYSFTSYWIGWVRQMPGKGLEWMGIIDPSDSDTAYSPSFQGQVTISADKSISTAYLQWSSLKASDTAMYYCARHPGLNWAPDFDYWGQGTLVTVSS VL: DIQMTQSPSSLSASVGDRVTITCRASQSIAEFLNWYQQKPGKAPKLLIYFASSLQSGVPSRFSGSGSGTDFTLTISSLQPEDFATYYCQQSIDFPLTFGQGTKVEIK is ____.
Result: 9.90
